System: p-Phenylquinone-induced agony (writhing response) in mice
Assay: p-Phenylquinone-induced agony test in mice (oral administration)
Format: in vivo, Male ddy mice
Conditions: Mus musculus, 0.25 h, read-out: Analgesic effect (Oral Administration) (ED50, mg/kg) Phenylquinone-induced agony test
Method: p-Phenylquinone-induced agony test in mice (oral administration) According to the method of Siegmund et al. [Proc. Soc. Exptl. Biol. Med., 95, 729 (1957)], the title test was conducted. […] A compound to be tested was dissolved in 0.5% tragacanth and administered orally. […] During 5 to 10 minutes after injection, the number of agony reactions (writhing response) observed in each mouse was counted. […]
Counter-ions that a name gives are not always drawn.

>  <COMPOUND>
O=C1C[C@H](C(=O)N2CCSC[C@H]2CN2CCCC2)c2cc(Cl)c(Cl)cc21 [Example 2, hydrochloride]

>  <ED50, mg/kg>
0.031

$$$$
>  <COMPOUND>
O=C1C[C@H](C(=O)N2CCSC[C@H]2CN2CCCC2)c2cc(Cl)c(Cl)cc21 (relative stereo) [Racemate Corresponding to Compound of Example 2]

>  <ED50, mg/kg>
0.79

$$$$
>  <COMPOUND>
O=C([C@H]1CCc2cc(Cl)c(Cl)cc21)N1CCSC[C@H]1CN1CCCC1 [Example 1, hydrochloride]

>  <ED50, mg/kg>
0.011

$$$$
>  <COMPOUND>
O=C1CC[C@H](C(=O)N2CCSC[C@H]2CN2CCCCC2)c2cc(Cl)c(Cl)cc21 [Example 3, hydrochloride]

>  <ED50, mg/kg>
0.29

$$$$
>  <COMPOUND>
O=C1CC[C@H](C(=O)N2CCSC[C@H]2CN2CCCCC2)c2cc(Cl)c(Cl)cc21 (relative stereo) [Racemate Corresponding to Compound of Example 3]

>  <ED50, mg/kg>
1.22

$$$$
>  <COMPOUND>
O=C([C@H]1CCc2cc(Cl)c(Cl)cc21)N1CCSC[C@H]1CN1CCCC1 (relative stereo) [Racemate Corresponding to Compound of Example 1]

>  <ED50, mg/kg>
0.18

$$$$

---

Molecular target: k-receptor (Cavia porcellus)
Construct: The whole brain of male Hertley guinea pigs (Japan SLC); from tissue; host or cells: crude membranes of guinea pig whole brain without cerebellum (Hartley, printed 'Hertley', males)
Sequence (P41144 whole entry): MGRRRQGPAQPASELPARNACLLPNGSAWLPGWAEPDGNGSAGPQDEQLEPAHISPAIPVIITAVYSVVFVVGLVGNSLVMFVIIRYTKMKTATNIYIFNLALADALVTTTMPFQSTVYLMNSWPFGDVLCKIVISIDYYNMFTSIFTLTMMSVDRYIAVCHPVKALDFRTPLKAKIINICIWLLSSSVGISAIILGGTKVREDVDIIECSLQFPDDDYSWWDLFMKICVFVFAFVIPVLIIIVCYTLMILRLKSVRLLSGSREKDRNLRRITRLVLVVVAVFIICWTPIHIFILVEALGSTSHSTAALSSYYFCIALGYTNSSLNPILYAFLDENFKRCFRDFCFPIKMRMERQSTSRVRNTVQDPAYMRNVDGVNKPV
Assay: biochemical
Assay type: binding, guinea pig
pIC50: −log10 of the molar value. Counter-ions that a name gives are not always drawn.
Attribute: pIC50
MEASURED_ENDPOINT: pIC50

>  <COMPOUND>
O=C([C@H]1CCc2cc(Cl)c(Cl)cc21)N1CCSC[C@@H]1CN1CCCC1 [Corresponding (3S, 1S)]

>  <MEASURED_ENDPOINT>
pIC50

>  <READOUT_NUMBER>
6.04

$$$$
>  <COMPOUND>
O=C1C[C@H](C(=O)N2CCSC[C@H]2CN2CCCC2)c2cc(Cl)c(Cl)cc21 [Example 2, hydrochloride]

>  <MEASURED_ENDPOINT>
pIC50

>  <READOUT_NUMBER>
9.34

$$$$
>  <COMPOUND>
O=C([C@@H]1CCc2cc(Cl)c(Cl)cc21)N1CCSC[C@@H]1CN1CCCC1 [Corresponding (3S, 1R)]

>  <MEASURED_ENDPOINT>
pIC50

>  <READOUT_NUMBER>
4.68

$$$$

// provenance: patent US5679674A
